- assay-target: T1, human IL-23 (human, UniProt P29460 23-328; Q9NPF7 20-189)
- T1 construct: Recombinant (Ebioscience); HIS-tagged in flow cytometry, biotinylated in some assays; also called hIL-23; rhIL-23
- T1 sequence 1: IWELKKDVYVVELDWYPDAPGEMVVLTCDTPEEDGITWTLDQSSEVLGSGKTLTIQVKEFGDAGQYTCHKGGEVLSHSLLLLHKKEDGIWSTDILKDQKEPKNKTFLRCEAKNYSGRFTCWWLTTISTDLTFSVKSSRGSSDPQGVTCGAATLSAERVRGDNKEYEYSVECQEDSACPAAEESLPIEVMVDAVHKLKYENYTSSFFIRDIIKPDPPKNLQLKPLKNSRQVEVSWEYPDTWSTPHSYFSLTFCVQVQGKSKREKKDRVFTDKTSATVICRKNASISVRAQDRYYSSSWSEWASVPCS
- T1 sequence 2: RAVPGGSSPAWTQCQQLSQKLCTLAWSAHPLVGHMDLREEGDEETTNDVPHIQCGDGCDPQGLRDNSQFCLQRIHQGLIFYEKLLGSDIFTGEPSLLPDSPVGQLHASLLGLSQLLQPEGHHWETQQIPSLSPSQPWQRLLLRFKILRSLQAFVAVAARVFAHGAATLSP
- protocol: SPR, single 81 nM analyte, scFv via FLAG
Reported kon values for a set of binders
The response must be a number in M⁻¹ s⁻¹ with no trailing unit.

Some solved entries appear below for comparison.
## Task Specify reported kon for the binder shown: scFv combo. # 11 (scFv, scFv-80 with VH Y59S; VL S26P; not shown: proprietary C-terminal FLAG tag) scFv: QVQLVQSGAEVKKPGASVKVSCKASGYTFTDYYLHWVRQAPGQGLEWMGWIDPENGDTESAPKFQGRVTMTTDTSTSTAYMELRSLRSDDTAVYYCNANKELRYFDVWGQGTMVTVSSGGGGSGGGGSGGGGSEIVMTQSPATLSVSPGERATLSCRAPQSISINLHWYQQKPGQAPRLLIYFASQSISGIPARFSGSGSGTEFTLTISSLQSEDFAVYYCQQSNSFPLTFGGGTKVEIKR
## Result 220000

## Task Using known records, supply kon for scFv combo. # 2 (scFv, scFv-80 with VH T28A, Y59S; not shown: proprietary C-terminal FLAG tag) scFv: QVQLVQSGAEVKKPGASVKVSCKASGYAFTDYYLHWVRQAPGQGLEWMGWIDPENGDTESAPKFQGRVTMTTDTSTSTAYMELRSLRSDDTAVYYCNANKELRYFDVWGQGTMVTVSSGGGGSGGGGSGGGGSEIVMTQSPATLSVSPGERATLSCRASQSISINLHWYQQKPGQAPRLLIYFASQSISGIPARFSGSGSGTEFTLTISSLQSEDFAVYYCQQSNSFPLTFGGGTKVEIKR
## Result 230000

## Task Tell me kon reported for scFv combo. # 13 (scFv, scFv-80 with VH T28A, Q43R; VL I55T; not shown: proprietary C-terminal FLAG tag) scFv: QVQLVQSGAEVKKPGASVKVSCKASGYAFTDYYLHWVRQAPGRGLEWMGWIDPENGDTEYAPKFQGRVTMTTDTSTSTAYMELRSLRSDDTAVYYCNANKELRYFDVWGQGTMVTVSSGGGGSGGGGSGGGGSEIVMTQSPATLSVSPGERATLSCRASQSISINLHWYQQKPGQAPRLLIYFASQSTSGIPARFSGSGSGTEFTLTISSLQSEDFAVYYCQQSNSFPLTFGGGTKVEIKR
## Result 250000

New cases:
## Task Provide measured kon value, entry: scFv combo. # 10 (scFv, scFv-80 with VH T28A, Y59H; not shown: proprietary C-terminal FLAG tag) scFv: QVQLVQSGAEVKKPGASVKVSCKASGYAFTDYYLHWVRQAPGQGLEWMGWIDPENGDTEHAPKFQGRVTMTTDTSTSTAYMELRSLRSDDTAVYYCNANKELRYFDVWGQGTMVTVSSGGGGSGGGGSGGGGSEIVMTQSPATLSVSPGERATLSCRASQSISINLHWYQQKPGQAPRLLIYFASQSISGIPARFSGSGSGTEFTLTISSLQSEDFAVYYCQQSNSFPLTFGGGTKVEIKR
## Result 220000

## Task Report kon for scFv combo. # 8 (scFv, scFv-80 with VH F29L, Y59S; not shown: proprietary C-terminal FLAG tag) scFv: QVQLVQSGAEVKKPGASVKVSCKASGYTLTDYYLHWVRQAPGQGLEWMGWIDPENGDTESAPKFQGRVTMTTDTSTSTAYMELRSLRSDDTAVYYCNANKELRYFDVWGQGTMVTVSSGGGGSGGGGSGGGGSEIVMTQSPATLSVSPGERATLSCRASQSISINLHWYQQKPGQAPRLLIYFASQSISGIPARFSGSGSGTEFTLTISSLQSEDFAVYYCQQSNSFPLTFGGGTKVEIKR
## Result 200000

## Task Give the measured kon for scFv combo. # 7 (scFv, scFv-80 with VH F29L, Y59H; not shown: proprietary C-terminal FLAG tag) scFv: QVQLVQSGAEVKKPGASVKVSCKASGYTLTDYYLHWVRQAPGQGLEWMGWIDPENGDTEHAPKFQGRVTMTTDTSTSTAYMELRSLRSDDTAVYYCNANKELRYFDVWGQGTMVTVSSGGGGSGGGGSGGGGSEIVMTQSPATLSVSPGERATLSCRASQSISINLHWYQQKPGQAPRLLIYFASQSISGIPARFSGSGSGTEFTLTISSLQSEDFAVYYCQQSNSFPLTFGGGTKVEIKR
## Result 200000

## Task Entry scFv combo. # 6 (scFv, scFv-80 with VH T28A, Y59H, T68S; not shown: proprietary C-terminal FLAG tag) scFv: QVQLVQSGAEVKKPGASVKVSCKASGYAFTDYYLHWVRQAPGQGLEWMGWIDPENGDTEHAPKFQGRVSMTTDTSTSTAYMELRSLRSDDTAVYYCNANKELRYFDVWGQGTMVTVSSGGGGSGGGGSGGGGSEIVMTQSPATLSVSPGERATLSCRASQSISINLHWYQQKPGQAPRLLIYFASQSISGIPARFSGSGSGTEFTLTISSLQSEDFAVYYCQQSNSFPLTFGGGTKVEIKR needs its kon filled in; supply it.
## Result 230000
